Origin of the recorded values: patent US20190055314A1

# EXPERIMENTAL SYSTEM: T1, CD137-hisFc fusion protein (Sino Biological Cat 10041-H03H) (human, UniProt Q07011 24-186)
# T1 construct: Bought; also called recombinant human CD137 (fused with human Fc and His tag); not shown: His tag and human Fc
# ASSAY INFO: BLI Octet, Fab
Readings of koff for the listed binders
Write the value in s⁻¹ as a bare number.

>>> meas_value("Fab 7131 (Fab, V domains shown, Fab from E. coli; also called VH55/VL55) VH: EVQLVESGGGLVQPGGSLRLSCAASGFSLSTGGVGVGWIRQAPGKGLEWVSYISGAGDSTYYADSVKGRFTISRDNSKNTLYLQLNSLRAEDTAVYYCAREGSDTVLGDWFAYWGQGTLVTVSS VL: DIQLTQSPSSLSASVGDRVTITCRASQGVSSYLAWYQQKPGKAPKLLIYDASNLETGVPSRFSGSGSGTDFTLTISSLQPEDFATYYCQQYYTTPLTFGQGTKVEIKR")
0.0081
>>> meas_value("Fab 5302 (Fab, V domains shown, Fab from E. coli; also called VH13/VL13) VH: EVQLVESGGGLVQPGGSLRLSCAASGFSLSTGGVGVAWIRQAPGKGLEWVSSISGYGSTTYYADSVKGRFTISRDNSKNTLYLQLNSLRAEDTAVYYCAREGSDAVLGDWFGYWGQGTLVTVSS VL: DIQLTQSPSSLSASVGDRVTITCQASQDITTYLAWYQQKPGKAPKLLIYDASNRATGIPSRFSGSGSGTDFTLTISSLQPEDFATYYCQQGYYLWTFGQGTKVEIKR")
0.000426

Memo: Fab 5346 (Fab, V domains shown, Fab from E. coli; also called VH22/VL22) VH: EVQLVESGGGLVQPGGSLRLSCAASGFSLSTGGVGVGWIRQAPGKGLEWVSGISGYGSTTYYADSVKGRFTISRDNSKNTLYLQLNSLRAEDTAVYYCAREGSDAVAGDWFDYWGQGTLVTVSS VL: DIQLTQSPSSLSASVGDRVTITCRASQDIRSYLAWYQQKPGKAPKLLIYDASNRATGIPSRFSGSGSGTDFTLTISSLQPEDFATYYCQQGYSIWTFGQGTKVEIKR , reported koff: 0.00977
